Source of measurements: paper PMC3479660

Biological target: P2Y12 receptor (Homo sapiens)
Assay: [35S]GTPγS binding in isolated platelet membranes
Format: biochemical

>  <COMPOUND>
CC(C)=CCCC(C)=CCCC(C)=CCOP(=O)(O)OP(=O)(O)O.N.N.N [FPP]

>  <IC50>
45 µM

$$$$

###

Target: P2Y12 receptor (Homo sapiens, UniProt Q9H244)
Sequence (Q9H244 whole entry): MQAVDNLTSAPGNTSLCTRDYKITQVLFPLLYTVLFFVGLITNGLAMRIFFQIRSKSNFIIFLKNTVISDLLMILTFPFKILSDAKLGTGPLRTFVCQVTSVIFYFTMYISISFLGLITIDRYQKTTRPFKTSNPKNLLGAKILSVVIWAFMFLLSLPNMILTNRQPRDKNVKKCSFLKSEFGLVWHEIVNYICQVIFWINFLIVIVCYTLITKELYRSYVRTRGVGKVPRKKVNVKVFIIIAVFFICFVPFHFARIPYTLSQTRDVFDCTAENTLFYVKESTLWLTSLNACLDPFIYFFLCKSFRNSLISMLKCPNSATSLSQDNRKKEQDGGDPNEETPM
Test: [3H]PSB-0413 radioligand competition binding, Sf9 insect cell membranes

>  <ITEM SMILES>
CC(C)=CCCC(C)=CCCC(C)=CCOP(=O)(O)OP(=O)(O)O.N.N.N

>  <IC50>
65.8 µM

$$$$
